- System: SW-620 colon
- Test Method Notes: NCI tumour cell line growth inhibition, 48 h
Measure Name: TGI

Use these answered entries as a reference point.
Molecule	TGI
O=C1c2ccccc2-c2c1c1ccccc1c(=O)n2CCCNCCNCCCn1c2c(c3ccccc3c1=O)C(=O)c1ccccc1-2	0.258 µM
C=CCOC(C)(C)C1=CCC(C)CC1 (stereo not given)	> 100 µM
CC(C)CNP(=O)(NCC(C)C)Oc1ccc(CC(NC(=O)OCc2ccccc2)C(=O)OCc2ccccc2)cc1 (stereo not given)	40.2 µM
CNC(=O)OCc1nc(SSc2nc(COC(=O)NC)c(COC(=O)NC)n2C)n(C)c1COC(=O)NC	> 100 µM
Cc1cc(-c2ccc(N=Nc3ccc4c(S(=O)(=O)O)cc(S(=O)(=O)O)c(N)c4c3O)c(C)c2)ccc1N=Nc1ccc2c(S(=O)(=O)O)cc(S(=O)(=O)O)c(N)c2c1O	> 100 µM

Challenge: Which TGI is reported for this molecule? CCN(CC)CCCC(Nc1c2ccc(Cl)cc2nc2ccc(OC)cc12)c1ccc(Cl)cc1 (stereo not given)
Response given: 2.99 µM

Challenge: Which TGI is reported for this molecule? COc1cc(C2c3cc4c(cc3[C@@H](Nc3ccc(F)cc3)C3COC[C@H]23)OCO4)cc(OC)c1O (stereo not given in full)
Response given: > 25 µM

Challenge: Which TGI is reported for this molecule? "Cc1ccccc1Nc1cc(O)c2c(=O)cc(-c3ccccc3)oc2c1"
Response given: > 100 µM

Challenge: Which TGI is reported for this molecule? "OCc1ccc(-c2ccc(-c3ccc(CO)o3)o2)o1"
Response given: > 100 µM

Challenge: Which TGI is reported for this molecule? "COc1ccccc1/C=C(\NC(=O)c1ccccc1)c1nc2ccc(Cl)cc2[nH]1"
Response given: > 100 µM

Challenge: Which TGI is reported for this molecule? "CC(C)(C)C1=NO[C@H]2[C@@H](NC(=O)c3ccccc3)CC[C@@H]12"
Response given: > 100 µM

Challenge: Which TGI is reported for this molecule? CCOC(=O)C1=C(C)N(NC(N)=O)C2(N)N(NC(N)=O)C(C)=C(C(=O)OCC)C12C#N (stereo not given)
Response given: > 100 µM

Challenge: Which TGI is reported for this molecule? C/C(=C/CCC(C)[C@@H]1CC[C@]2(C)C3=C(CC[C@@]12C)[C@@]1(C)CCC(=O)C(C)(C)[C@@H]1CC3)C(=O)O (stereo not given in full)
Response given: 3.41 µM

Challenge: Which TGI is reported for this molecule? "O=C(Nc1cccc2ccccc12)c1cc2ccccc2oc1=O"
Response given: > 100 µM

Challenge: Which TGI is reported for this molecule? "CCOC(=O)c1cc(C(=O)c2ccc(OC)c(OC)c2)n2c1ccc1ccc3cccnc3c12"
Response given: > 100 µM

Challenge: Which TGI is reported for this molecule? "O=c1[nH]c(=S)[nH]c(O)c1/C=C1\C=Nc2ccccc21"
Response given: 3.78 µM

----------
- Test system: SNB-78 CNS
- Test Method Notes: NCI tumour cell line growth inhibition, 48 h
Consider the following compounds and their measured TGI readings.

Use these answered entries as a reference point.
Compound	Tested System	Measure Name	Obs Value
C/C(CCN(C)C)=N/O	SNB-78 CNS	TGI	51.7 µM
COCOC1CCCC[C@@]1(OCCOCCO[C@@]1(c2ccccc2)CCCC[C@H]1OCOC)c1ccccc1 (stereo not given in full)	SNB-78 CNS	TGI	> 100 µM
Cc1cccc(C)c1NC(=O)CCCC(=O)C(C#N)c1ccccc1 (stereo not given)	SNB-78 CNS	TGI	> 100 µM

Challenge: Which TGI is reported for this compound? "C#Cc1cccc(NC(=O)/C=C\C(=O)O)c1"
Response given: > 100 µM

Challenge: Which TGI is reported for this compound? "CCOC(=O)C[C@@]12CCCN[C@]1(C)CCc1ccccc12"
Response given: > 100 µM

----------
- Tested on: OVCAR-5 ovarian
- Test Method Notes: NCI tumour cell line growth inhibition, 48 h
Measure Name: TGI

Use these answered entries as a reference point.
Compound	TGI
S=C(Sc1ccc(Cl)cc1)Sc1ccc(Cl)cc1	4.81 µM
O=C1OC(=O)c2c1nc1ccccc1c2-c1ccccc1	> 100 µM
Cc1ccc(S(=O)(=O)Nc2ccccc2C(C)(C)C)cc1	> 100 µM
COc1cc2c(cc1O)C(Cc1ccc(OCc3ccccc3)c(OCc3ccccc3)c1)N(C(=O)NCCc1ccccc1)CC2 (stereo not given)	> 100 µM

Now let's try a different one.
Challenge: Which TGI is reported for this compound? "CC(C)c1ccc(Cc2ccc(C(C)C)c(NC(=O)C(=O)Cc3cnc4ccccc4n3)c2C(C)C)c(C(C)C)c1NC(=O)C(=O)Cc1cnc2ccccc2n1"
Response given: > 100 µM

----------
- System: LOX IMVI melanoma
- Test Method Notes: NCI tumour cell line growth inhibition, 48 h
Consider the following compounds and their measured TGI readings.

Use these answered entries as a reference point.
Compound	TGI
[O-][n+]1c2cccc(O)c2[n+]([O-])c2cccc(O)c21	> 100 µM
O=C(/C=C\c1ccccc1)Oc1ccc(/C=C2\CCC/C(=C\c3ccc(OC(=O)/C=C\c4ccccc4)cc3)C2=O)cc1	> 100 µM
O=c1[nH]ncc2[nH]c3c(c12)CCc1ccccc1-3	> 100 µM
N#CN1CC[C@H](C(=O)Nc2ncc(-c3ccccc3)s2)C1	1.65 µM
C[C@H]1CCC/C=C/[C@@H]2C[C@H](OC3OC(CO)C(O)C(O)C3O)C[C@H]2[C@H](O)/C=C/C(=O)O1 (stereo partly specified)	> 100 µM

Challenge: Which TGI is reported for this compound? "NC(=O)CSc1nc2ccccc2c(=O)n1N"
Response given: > 100 µM

----------
- Test system: NCI-H460 lung
- Test Method Notes: NCI tumour cell line growth inhibition, 48 h
Consider the following compounds and their measured TGI readings.

Use these answered entries as a reference point.
Compound	Tested System	TGI
CN1CCCc2nc3ccccc3n2C1	NCI-H460 lung	> 100 µM
Cc1ccccc1Nc1cc(O)c2c(=O)cc(-c3ccccc3)oc2c1	NCI-H460 lung	> 100 µM
CCOC(=O)C1C(c2ccc(Br)cc2)N(Cc2ccccc2)C(c2ccc(Br)cc2)C(C(=O)OC)S1(=O)=O (centres undefined)	NCI-H460 lung	> 100 µM
N#CN1CC[C@H](C(=O)Nc2ncc(-c3ccccc3)s2)C1	NCI-H460 lung	2.47 µM
COC(=O)CCC(C)[C@H]1CCC2C3CC[C@@H]4CC5(CC[C@]4(C)C3C[C@H](OC(C)=O)[C@@]21C)OOC1(CCCCC1)OO5 (some centres undefined)	NCI-H460 lung	> 100 µM

Challenge: Which TGI is reported for this compound? BrC1(c2ccccc2)C[n+]2c(-c3ccccc3)cc(-c3ccccc3)cc2-c2ccccc21 (centres undefined)
Response given: 6.99 µM

Challenge: Which TGI is reported for this compound? COc1cc2c(cc1O)C(Cc1ccc(OCc3ccccc3)c(OCc3ccccc3)c1)N(C(=O)NCCc1ccccc1)CC2 (centres undefined)
Response given: > 100 µM

Challenge: Which TGI is reported for this compound? COCOC1CCCC[C@@]1(OCCOCCO[C@@]1(c2ccccc2)CCCC[C@H]1OCOC)c1ccccc1 (some centres undefined)
Response given: > 100 µM

Challenge: Which TGI is reported for this compound? "Nc1c(C(=O)O)c2ccc([N+](=O)[O-])cc2c(=O)n1-c1nc2ccccc2s1"
Response given: > 100 µM

----------
Consider the following compounds and their measured TGI readings.
- System: UACC-257 melanoma
- Test Method Notes: NCI tumour cell line growth inhibition, 48 h

Compound	TGI
C=CCOC(C)(C)C1=CCC(C)CC1 (stereo unspecified)	> 100 µM
NC1CCC2(O)c3ccccc3C2C1 (stereo unspecified)	> 100 µM
Cc1cc(NC(=O)NC(=O)c2ccccc2NC(=O)CN(C)C)ccc1Oc1ncc(Br)cn1	> 100 µM
COc1ccccc1N=Nc1c(O)ccc2ccccc12	> 100 µM

Now let's try a different one.
Challenge: Enter reported TGI observed with UACC-257 melanoma for "Cc1ccc(S(=O)(=O)NC(=O)Nc2ccc(C(=O)O)cc2)cc1"
Response given: > 100 µM

----------
- System: PC-3 prostate
- Test Method Notes: NCI tumour cell line growth inhibition, 48 h
Consider the following compounds and their measured TGI readings.
Report the figure in µM without appending any unit label.

Compound	Tested System	U	TGI
CCCCCCC(=O)OC[n+]1ccc2c(C)c3[nH]c4ccc(OC)cc4c3c(C)c2c1	PC-3 prostate	µM	1.51
N#CN1CC[C@H](C(=O)Nc2ncc(-c3ccccc3)s2)C1	PC-3 prostate	µM	2.97

Now let's try a different one.
Challenge: Which TGI is reported for this compound? CC(C)OC(=O)C(NC(=O)C(CC(=O)OCc1ccccc1)NC(=O)OCc1ccccc1)NC(=O)C1C(C)(C)CCC1(C)C (stereo not given)
Response given: 11.2
